Tested on: HEK293T (UBE3A T485A transfected, BAR Wnt reporter)
Test: Renilla luciferase signal (cell health) relative to plate median (fold (linear ratio)); higher = higher Renilla signal
Settings: concentration: 0.1 uM; 24 h
Whole data set: some 1,100 compounds, median “Renilla luciferase signal (cell health) relative to plate median” near 0.97, cut for the highest 2% near 1.6. The entries come from a sample that favours the highest values as a whole.
measure: Renilla luciferase signal

molecule: O=C(N[C@H](c1ccccc1)[C@@H]1CN2CCC1CC2)c1c(Cl)ccc(C(F)(F)F)c1Cl
measuredValue: 0.771
--
molecule: Nc1c(Cl)cc([N+](=O)[O-])cc1Cl [Dicloran]
measuredValue: 0.765
--
molecule: CC(O)CCO (configuration not stated) [1,3-Butanediol]
measuredValue: 1.06
--
molecule: Clc1cc(Cl)c(Cl)cc1Cl [1,2,4,5-Tetrachlorobenzene]
measuredValue: 0.579
--
molecule: C=CC1(C)OC(=O)N(c2cc(Cl)cc(Cl)c2)C1=O (configuration not stated) [Vinclozolin]
measuredValue: 0.904
--
molecule: CCCOc1nn(C(=O)[N-]S(=O)(=O)c2ccccc2C(=O)OC)c(=O)n1C.[Na+] [Propoxycarbazone-sodium]
measuredValue: 1.21
--
molecule: CC(Cc1ccc(OCC(=O)O)cc1)NCC(O)c1csc(C(F)(F)F)n1 (configuration not stated)
measuredValue: 0.796
--
molecule: O=[N+]([O-])c1ccc(O)c([N+](=O)[O-])c1 [2,4-Dinitrophenol]
measuredValue: 1.15
--
molecule: CCCCNC(=O)OCC#CI [3-Iodo-2-propynyl-N-butylcarbamate]
measuredValue: 0.986
--
molecule: Nc1cnn(-c2ccccc2)c(=O)c1Cl [Chloridazon]
measuredValue: 0.982
--
molecule: C1=CCCC=CCCC=CCC1 [1,5,9-Cyclododecatriene]
measuredValue: 0.691
--
molecule: CCC(C)C1OC2(C=CC1C)CC1CC(CC=C(C)C(OC3CC(OC)C(OC4CC(OC)C([NH2+]C)C(C)O4)C(C)O3)C(C)C=CC=C3COC4C(O)C(C)=CC(C(=O)O1)C34O)O2.O=C([O-])c1ccccc1 (configuration not stated) [Emamectin benzoate]
measuredValue: 1.08

###

Tested on: HEK293T (UBE3A T485A transfected, BAR Wnt reporter)
Assay: Renilla luciferase signal (cell health) relative to plate median (fold (linear ratio)); higher = higher Renilla signal
Settings: concentration: 10 uM; 24 h
Whole data set: some 1,100 compounds, median “Renilla luciferase signal (cell health) relative to plate median” near 0.97, cut for the highest 2% near 1.6. The sample holds the highest values, similar compounds and a random draw of the others, so the mix is not that of the screen.
Listing: Renilla luciferase signal of selected molecules

molecule: CCCSP(=O)(OCC)Oc1ccc(Br)cc1Cl (configuration not stated)
Renilla luciferase signal: 1
//
molecule: CCCCSP(=O)(SCCCC)SCCCC
Renilla luciferase signal: 0.82
//
molecule: CCOP(=S)(OCC)Oc1ccc([N+](=O)[O-])cc1
Renilla luciferase signal: 1.11
//
molecule: CC(C)(c1ccccc1)c1ccc(O)c(C(C)(C)c2ccccc2)c1
Renilla luciferase signal: 1.05
//
molecule: CCc1cnc(C2=NC(C)(C(C)C)C(=O)N2)c(C(=O)O)c1 (configuration not stated)
Renilla luciferase signal: 0.991
//
molecule: CN(C)NC(=O)CCC(=O)O [Daminozide]
Renilla luciferase signal: 0.807
//
molecule: CNC(=O)Oc1ccccc1OC(C)C
Renilla luciferase signal: 0.843
//
molecule: O=[N+]([O-])c1ccccc1
Renilla luciferase signal: 0.817
//
molecule: Cc1ccc(N)cc1
Renilla luciferase signal: 0.684
//
molecule: CC(C)(C)OOC(C)(C)C [Di-tert-butyl peroxide]
Renilla luciferase signal: 1.09
//
molecule: C[n+]1ccc(-c2cc[n+](C)cc2)cc1
Renilla luciferase signal: 0.995
//
molecule: CCOC(=O)c1ccccc1C(=O)OCC [Diethyl phthalate]
Renilla luciferase signal: 0.976
//
molecule: COc1nn(CSP(=S)(OC)OC)c(=O)s1
Renilla luciferase signal: 0.715
//
molecule: OC(c1ccc(Cl)cc1)(c1cncnc1)c1ccccc1Cl (configuration not stated)
Renilla luciferase signal: 0.942
//
molecule: O=C1CCCO1
Renilla luciferase signal: 0.928
//
molecule: O=C(N[C@H](c1ccccc1)[C@@H]1CN2CCC1CC2)c1c(Cl)ccc(C(F)(F)F)c1Cl
Renilla luciferase signal: 0.344
//
molecule: CCOP(=S)(OCC)SCSP(=S)(OCC)OCC
Renilla luciferase signal: 0.973
//
molecule: CC(C)C1(C)N=C(c2ncccc2C(=O)O)NC1=O (configuration not stated)
Renilla luciferase signal: 0.959
//
molecule: Cc1cccc(C)c1N
Renilla luciferase signal: 0.833
//
molecule: CCCCNC(=O)OCC#CI [3-Iodo-2-propynyl-N-butylcarbamate]
Renilla luciferase signal: 0.822
//
molecule: [Cl-].[Cl-].[Hg+2] [Mercuric chloride]
Renilla luciferase signal: 0.153
//
molecule: O=C(NC(=O)c1cc(F)c(F)cc1Cl)Nc1cc(F)ccc1N1CCC(C(=O)O)CC1
Renilla luciferase signal: 0.797
